Catalogue of TGI values
- System: SF-539 CNS
- protocol-details: NCI tumour cell line growth inhibition, 48 h

compound | result-operator | TGI (µM)
COc1ccc2c([nH]c3c(O)c(-c4c(C)cc5c([nH]c6c(CC=C(C)C)c(OC)ccc65)c4O)c(C)cc32)c1CC=C(C)C | > | 100
C=C1C(=O)OC2C3OC(C)(CCC(O)C3COC(C)=O)CC(OC(=O)/C(=C/C)COC(C)=O)C12 (stereo not given) | = | 3.22
O=C(c1ccc2ccccc2c1)c1c(C(F)(F)F)n([O-])c2ccc(F)cc2[n+]1=O | = | 3.32
O=S(=O)(O)c1cc(S(=O)(=O)O)c2c(N=Nc3ccc(N=Nc4ccccc4)cc3)c(O)ccc2c1 | > | 100
O=[N+]([O-])/C(C(Cl)=C(Cl)Cl)=C(/Nc1ccccc1)Sc1ccccc1 | = | 52.3
Cn1cc(C2=C(c3cn(CCCCC(=N)N)c4ccccc34)C(=O)NC2=O)c2ccccc21 | > | 25
Cc1cc2ccc(N)nc2[nH]c1=O | > | 100
C[C@H](CCC(=O)NCC(=O)O)[C@H]1CC[C@H]2[C@@H]3[C@H](O)C[C@@H]4C[C@H](O)CC[C@]4(C)[C@H]3CC[C@]12C | > | 100
O=C(NCCCCCN1CCC2(CCCCC2)CC1)C(C1CCCCC1)C1CCCCC1 | = | 3.43
Cc1cc2nc(-c3c(F)cccc3Cl)n(Cc3c(F)cccc3Cl)c2cc1C | = | 34.8
Cc1ccc(S[C@@H](C)[C@@](O)(C(N)=O)c2ccccc2)cc1 | = | 60.3
CCOC(=O)C1=C(C)N(C2OC(COC(=O)c3ccccc3)C(OC(=O)c3ccccc3)C2OC(=O)c2ccccc2)C(=S)NC1c1ccccc1 (stereo not given) | > | 100
C=C(C)[C@@H]1CC[C@]2(CO)CC[C@]3(C)[C@H](CC[C@@H]4[C@@]5(C)CC[C@H](NCO)C(C)(C)[C@@H]5CC[C@]43C)[C@@H]12 | = | 1.52
CC/C(N)=N\NC(=O)OC(C)(C)C | > | 100
Nc1nc(N)c2c(n1)NC(c1sc(Cl)nc1Cl)CC(c1ccc3c(c1)OCO3)=N2 (stereo not given) | = | 8.24
NS(=O)(=O)c1ccc(NC(=O)c2cccc(NC3=C(Cl)C(=O)N(Cc4ccccc4)C3=O)c2)cc1 | = | 26.7
O=C(/C=C/c1ccccc1)CCC1C(=O)NC(=S)NC1=O | > | 100
N#Cc1nc(/C=C/c2cccnc2)oc1N | > | 100
c1ccc(-c2nnc3nn4c(-c5ccccc5)cnnc4c3c2-c2ccccc2)cc1 | = | 99.5
CC(N1CCOCC1)C(O)(c1ccccc1)c1ccccn1 (stereo not given) | > | 100

====

- Tested on: UACC-62 melanoma
- protocol-details: NCI tumour cell line growth inhibition, 48 h
Where a SMILES comes first, the peptide text is derived from it. The star is where a group is joined. Trt = c1ccc(C(c2ccccc2)(c2ccccc2)*)cc1; Cbz = O=C(OCc1ccccc1)*
TGI of 20 µM or higher: true. Under 20 µM: false.

compound | label
CC1=CC(=O)NP(=O)(C23CC4CC(CC(C4)C2)C3)N1 (configuration not stated) | true
Cc1cc2nc(-c3c(F)cccc3Cl)n(Cc3c(F)cccc3Cl)c2cc1C | false
Cc1ccc(/C=N/NS(=O)(=O)c2ccccc2)c(C)c1 | true
COC(=O)C(CSC(c1ccccc1)(c1ccccc1)c1ccccc1)NC(=O)C(CC(N)=O)NC(=O)OCc1ccccc1 (stereo not drawn) (Cbz-Asn-Cys(Trt)-OMe; configuration not given here) | false
O=C(Nc1cccc(C(F)(F)F)c1)c1cc2ccccc2cc1O | true
NN/C(=N\S(=O)(=O)c1ccc(S(=O)(=O)c2ccccc2)s1)Nc1ccc(Cl)cc1 | true
COC(=O)c1ccc(NCC2=C(Br)C(=O)C=CC2=O)cc1Cl | true
CN(C(=O)CNC(=O)/C=C/c1cccc(Cl)c1)C1CCS(=O)(=O)CC1 | true
Cc1c(Cl)cccc1NC(=O)c1sc2nc3c(cc2c1N)CCCC3 | true
COc1cc(/C=N/NC2=NCCN2)ccc1O | true
O=C(O)CCc1nc(-c2ccccc2-n2cccc2)no1 | true
COc1cccc(NC2=C(Cl)C(=O)N(Cc3ccc(Cl)cc3)C2=O)c1 | false
C/C(=N/O)c1ccc(Nc2cc(-n3ccnc3)c3ccccc3n2)cc1 | true
c1ccc(-c2ccnc3c2ccc2c(-c4ccccc4)ccnc23)cc1 | false
O=C(/C=C/c1cccc2ccccc12)Nc1ncc(Cc2ccccc2)s1 | true
Cc1ccccc1NC(=O)Cc1csc(N=Nc2c(O)[nH]c3ccccc23)n1 | true
COc1cc2c3c(cc(Cl)nc3c1OC)C(O)(CC(=O)c1ccccc1)C(=O)N2 (configuration not stated) | false
O=S(=O)(O)c1ccc2c(N=Nc3ccc(Sc4ccc(N=Nc5c(O)ccc6cc(S(=O)(=O)O)ccc56)cc4)cc3)c(O)ccc2c1 | true
C=CC(C)(O)CC/C=C(\CO)C(=O)OC1C(C)OC(O[C@](C)(C=C)CC/C=C(\CO)C(=O)O[C@H]2C[C@@]3(C(=O)OC4OC(CO)C(O)C(O)C4OC4OC(C)C(OC5OC(CO)C(O)C5O)C(OC5OC(CO)C(O)C(O)C5O)C4O)C(CC2(C)C)C2=CCC4[C@@]5(C)CC[C@H](OC6OC(COC7OC(C)C(O)C(O)C7OC7OCC(O)C(O)C7O)C(O)C(O)C6NC(C)=O)C(C)(C)C5CC[C@@]4(C)[C@]2(C)C[C@H]3O)C(O)C1O (some centres not stated) | false
CC[C@@]1(O)C(=O)OCc2c1cc1n(c2=O)Cc2c-1nc1ccccc1c2/C=N\NC(=O)C(N)Cc1c[nH]c2ccccc12 (some centres not stated) | false
O=C1C(c2c(O)[nH]c3ccc(S(=O)(=O)NCCO)cc23)=Nc2ccccc21 | true
CC(=O)OC(=O)O/C=C\CCl | true
CC(C)(C)[Si](C)(C)OC[C@H](/C=C\CCCC(=O)O)NC1(c2ccccc2)c2ccccc2-c2ccccc21 | true
C/C(=N\NC(N)=S)c1ccc(C2CCCCC2)cc1 | true
O=C(c1ccc2ccccc2c1)c1c(C(F)(F)F)n([O-])c2ccc(F)cc2[n+]1=O | false
CNC(c1ccncc1)C(NC)c1ccncc1 (configuration not stated) | true
Cc1ccc(-c2n[nH]c(=O)c3noc(-c4ccc(C)cc4)c23)cc1 | true
COc1cc2c(cc1OCCCOc1ccc(-c3nc4ccc(N5CCN(C)CC5)cc4[nH]3)cc1)N=C[C@@H]1CCCN1C2=O | false
CCOC(=O)CCC(NC(=O)c1ccc(Nc2nc3ccccc3nc2C(=O)OCC)cc1)C(=O)OCC (configuration not stated) | false
COc1cc(C(C#N)NNc2nc(C)cc(=O)[nH]2)cc(OC)c1OC (configuration not stated) | true
O=C1N(c2ccccc2)C(=S)/C(=C/c2ccc(Cl)cc2)N1c1ccc(Cl)cc1 | true
Cc1cc(=O)oc2c(CNC(CC(C)C)C(=O)O)c(O)ccc12 (configuration not stated) | true
O=C(Nc1nc2ccccc2s1)c1cc(-c2ccc(F)cc2)n2nc(-c3ccccc3)cc2n1 | true
O=C1/C(=C\c2ccccc2)C2OCC=C3CN4CCC56c7ccccc7N1C5C2C3CC46 (configuration not stated) | false
O=S(=O)(O)c1cc(S(=O)(=O)O)c2c(N=Nc3ccc(N=Nc4ccccc4)cc3)c(O)ccc2c1 | true
CC(=O)NC(CCCN(Cc1ccccc1)C(=O)N(C)N=O)C(=O)NCc1ccccc1 (configuration not stated) | true
S=c1nc[nH]c2c1ncn2C1CCCO1 (configuration not stated) | true

====

- Tested on: IGROV1 ovarian
- protocol-details: NCI tumour cell line growth inhibition, 48 h
Where a SMILES comes first, the peptide text is derived from it. The star is where a group is joined. Trt = c1ccc(C(c2ccccc2)(c2ccccc2)*)cc1; Cbz = O=C(OCc1ccccc1)*
Catalogue of TGI values

compound | system | result-operator | TGI / µM
COCCN1C(=O)C2c3[nH]c4ccccc4c3C3CCC(C(C)(C)C)CC3C2C1=O (centres undefined) | IGROV1 ovarian | = | 43.4
COc1ccc(C2=NC(c3ccc(Cl)cc3)C(c3ccc(Cl)cc3)N2C(=O)N2CCNC(=O)C2)c(OC(C)C)c1 (centres undefined) | IGROV1 ovarian | = | 3.29
S=c1c2ccccc2c(=S)n2n1CC=CC2 | IGROV1 ovarian | > | 100
COC(=O)C(CSC(c1ccccc1)(c1ccccc1)c1ccccc1)NC(=O)C(CC(N)=O)NC(=O)OCc1ccccc1 (stereo not drawn) (Cbz-Asn-Cys(Trt)-OMe; configuration not given here) | IGROV1 ovarian | = | 25.7

====

Catalogue of GI50 values
- System: SK-MEL-28 melanoma
- protocol-details: NCI tumour cell line growth inhibition, 48 h

molecule | system | GI50
[CH3][Sn]1([CH3])[O]CC(COc2cc(Cl)c(Cl)cc2Cl)[O]1 (stereo not given) | SK-MEL-28 melanoma | > 100 µM
O=C(CCCCCCCCC(=O)N/N=C\c1cc(Cl)ccc1O)N/N=C\c1cc(Cl)ccc1O | SK-MEL-28 melanoma | 2.64 µM
Oc1ccc(Cl)cc1/C=N\NC(=S)N/N=C/c1cc(Cl)ccc1O | SK-MEL-28 melanoma | 4.58 µM
COc1ccc(C(=O)c2cc3c(N)c(C(=O)Nc4cccc(OC)c4)sc3nc2C)cc1 | SK-MEL-28 melanoma | > 100 µM
C/C(=N/O)c1ccc(Nc2cc(-n3ccnc3)c3ccccc3n2)cc1 | SK-MEL-28 melanoma | 70.4 µM
